The measurements presented in this section are drawn from paper PMC5540273.

Record form. Attribute: %Inh. Fill in for each entry.
System: CDKL3
assay_context: concentration: 1 μM, replicates: in singlicate; n = 1;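 further: KINOMEscan kinase panel screen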
Answers are plain numbers, in %.

For orientation, consider the following solved cases.
* Cl.Cl.c1ccc(-c2cc3ccncc3cc2OC2CCNCC2)cc1 | 0
* Clc1ccc(-c2cc(-c3c[nH]nc3-c3ccccn3)ccn2)cc1 | 22
* CNc1nccc(-c2c(-c3ccc(F)cc3)ncn2C2CCN(C)CC2)n1 | 0
* Cl.Fc1ccccc1COc1ccc(Nc2ncnc3ccc(-c4nnc(C(F)(F)F)o4)cc23)cc1Cl | 0
* COc1ccc(Nc2nccc(N3CCC(NC(=O)Nc4ccc5c(c4)OCO5)C3)n2)cc1 (stereo not drawn) | 0

Lab note: each compound below needs its %Inh filled in.
1. CCCc1ccc(S(=O)(=O)NC2CCN(c3ccnc(Nc4ccc(OC)cc4)n3)C2)cc1 (stereo not drawn)
2. COc1cc2c(Nc3cccc(NC(=O)c4ccccc4)c3)ncnc2cc1OCCCN1CCOCC1
3. Cn1ccc2ncnc(Oc3ccc(NC(=O)Nc4cccnc4)c(Cl)c3)c21
4. COc1ccc(NC(=O)c2ccc(-c3cc(-c4nnc(C)o4)ccc3C)cc2)cc1
5. O=c1cc(N2CCOCC2)nc2n(Cc3cccc(Cl)c3)ccn12
6. FC(F)(F)c1ccc(-c2cc(-c3c[nH]nc3-c3ccccn3)ccn2)cc1
7. FC(F)(F)c1ccc(-c2nn3ncccc3c2-c2ccnc(Nc3cccc(C(F)(F)F)c3)n2)cc1
8. O=C(Nc1ccccc1F)NC1CCN(c2ccnc(Nc3ccc(F)cc3)n2)C1 (stereo not drawn)

## Output
1: 0; 2: 0; 3: 13; 4: 0; 5: 0; 6: 0; 7: 0; 8: 0

Lab note: each compound below needs its %Inh filled in.
1. Cc1ccc(C)c(NC(=O)NCCNc2ccnc(Nc3ccc(F)cc3)n2)c1
2. Nc1n[nH]c2nnc(-c3ccccc3)cc12

## Output
0
69

* * *

Record form. Attribute: %Inh. Fill in for each entry.
Test system: SIK
assay_context: concentration: 1 μM, replicates: in singlicate; n = 1
Answers are plain numbers, in %.

Lab note: each compound below needs its %Inh filled in.
1. Fc1cccc(COc2ccc(Nc3ncnc4nn5ccccc5c34)cc2Cl)c1 [GW689066]
2. C[C@H]1CC[C@@H](C(=O)Nc2ccccc2)CN1c1cc(-c2ccc3c(N)n[nH]c3c2)nc(N)n1 [GSK2283293]

## Output
[0, 0]

Lab note: each compound below needs its %Inh filled in.
1. Cc1ccc(NC(=O)c2cccc(C#N)c2)cc1-c1ccc(C(=O)Nc2ccncc2)cc1 [GSK1398463]
2. Cc1cc(N2CCC(NS(=O)(=O)c3ccc(F)cc3)CC2)nc(Nc2cccc(C#N)c2)n1.O=C(O)C(F)(F)F [GSK1653537]
3. CN1c2ccc(-c3ccc(C(=O)NCCO)cc3)cc2-c2[nH]ncc2S1(=O)=O
4. Cl.Cn1ccc(-c2cccc(Nc3ccnc4cc(-c5nccs5)ccc34)c2)n1 [GW525701]
5. Cl.O=S(=O)(c1cccc(F)c1)c1ccc(Nc2ncnc3cc(Br)sc23)cc1Cl [GSK306886]
6. Cc1cccc(-c2nc(Nc3ccc4[nH]nnc4c3)c3ccccc3n2)n1 [GW867587]

## Output
1: 0; 2: 0; 3: 16; 4: 0; 5: 0; 6: 0

Lab note: each compound below needs its %Inh filled in.
1. CS(=O)(=O)CCNCc1ccc(-c2ccc3ncnc(Nc4ccc(OCc5ccccc5)c(Cl)c4)c3c2)o1.Cl [GW574783]
2. NC(=O)c1sc(-n2cnc3ccccc32)cc1OCc1ccccc1F [GSK1024306]
3. COc1ccc(NC(=O)Nc2ccc(C)c(-c3ccc(C(=O)Nc4ccncc4)cc3)c2)cc1 [GSK1398475]
4. CCCc1ccc(S(=O)(=O)NC2CCN(c3ccnc(Nc4ccc(OC)cc4)n3)C2)cc1 (centres unmarked) [GSK1379737]
5. Nc1nccc2scc(-c3ccc4c(c3)CCN4C(=O)Cc3cc(F)ccc3F)c12 [GSK2587663]
6. Fc1ccc(-c2ncn(CCCNCc3ccccc3)c2-c2ccncc2)cc1
7. FC(F)(F)c1ccc(-c2nn3ncccc3c2-c2ccnc(Nc3cccc(C(F)(F)F)c3)n2)cc1 [GW828205]
8. O=C(c1ccc(-c2cc(-c3c[nH]nc3-c3ccccn3)ccn2)cc1)N1CCCC1 [GW792479]

## Output
1. 0
2. 4
3. 7
4. 0
5. 0
6. 9
7. 47
8. 19

Lab note: each compound below needs its %Inh filled in.
1. COc1cc2ncnc(Nc3ccc(OCc4ccccc4Br)c(Cl)c3)c2cc1OC.Cl [GI261590]
2. COc1ccc(Nc2nccc(N3CCC(NC(=O)Nc4ccc5c(c4)OCO5)C3)n2)cc1 (centres unmarked) [GSK1379745]
3. Cl.Cl.c1ccc(-c2cc3ccncc3cc2OC2CCNCC2)cc1 [GSK1122999]

## Output
1: 0; 2: 6; 3: 0

* * *

Test system: WNK3
assay_context: concentration: 1 μM, replicates: in singlicate; n = 1
Entry flag: true (1) if %Inh reaches 20%; false (0) if it does not.

* CN1CCC(n2cnc(-c3ccc(F)cc3)c2-c2ccnc(NC3CCNCC3)n2)CC1 | true (1)
* Nc1nc(-c2ccc3c(N)n[nH]c3c2)cc(N2CCC[C@@H](C(=O)Nc3ccccc3)C2)n1.O=C(O)C(F)(F)F.O=C(O)C(F)(F)F | false (0)
* Cl.Cl.c1ccc(-c2cc3ccncc3cc2OC2CCNCC2)cc1 | false (0)
* COc1ccc(Nc2nccc(N3CCC(NC(=O)Nc4ccc5c(c4)OCO5)C3)n2)cc1 (centres unmarked) | false (0)
* COc1cc2c(Nc3cccc(NC(=O)c4ccccc4)c3)ncnc2cc1OCCCN1CCOCC1 | false (0)

## Input Is it the case that `O=c1cc(N2CCOCC2)nc2n(Cc3cccc(Cl)c3)ccn12` has %Inh reaching or exceeding 20%?
## Output false (0)

## Input Is it the case that `COc1cc2ncnc(Nc3ccc(OCc4ccccc4Br)c(Cl)c3)c2cc1OC.Cl` has %Inh reaching or exceeding 20%?
## Output true (1)

* * *

Test system: AKT2
assay_context: concentration: 1 μM, replicates: in singlicate; n = 1
Record form. Attribute: %Inh. Fill in for each entry.
One number for each entry, in %.

For orientation, consider the following solved cases.
- Fc1cccc(COc2ccc(Nc3ncnc4nn5ccccc5c34)cc2Cl)c1: 3
- CCn1c(-c2ccncc2)nc2cnccc21: 0
- Cl.Cn1ccc(-c2cccc(Nc3ccnc4cc(-c5nccs5)ccc34)c2)n1: 7

Lab note: each compound below needs its %Inh filled in.
1. FC(F)(F)c1ccc(-c2nn3ncccc3c2-c2ccnc(Nc3cccc(C(F)(F)F)c3)n2)cc1
2. CNc1nccc(-c2c(-c3ccc(F)cc3)ncn2CCCN2CCOCC2)n1
3. Cc1cc(N2CCC(NS(=O)(=O)c3ccc(F)cc3)CC2)nc(Nc2cccc(C#N)c2)n1.O=C(O)C(F)(F)F

## Output
[0, 0, 20]

Lab note: each compound below needs its %Inh filled in.
1. Clc1cccc(-c2nc(Nc3ccncc3)c3ccccc3n2)c1
2. Fc1cccc(COc2ccc(Nc3ncnc4sc(-c5ccc[nH]5)cc34)cc2Cl)c1
3. COC(=O)c1c(-c2ccccc2)c2cc(Cl)ccc2c(=O)n1Cc1ccc(S(C)(=O)=O)cc1

## Output
[0, 7, 3]

* * *

Record form. Attribute: %Inh. Fill in for each entry.
Test system: PRP4
assay_context: concentration: 1 μM, replicates: in singlicate; n = 1
Give bare numbers, in %.

For orientation, consider the following solved cases.
• CCc1nc(-c2cccc(N(C)S(=O)(=O)c3ccccc3)c2)c(-c2ccnc(Nc3ccc(N4CCN(C(C)=O)CC4)nc3)n2)s1 [GSK1645895] = 16
• Nc1nc(-c2ccccn2)c(-c2ccnc3ccccc23)s1 [GW548057] = 66

## Input Provide %Inh value for the following compound: Cl.O=S(=O)(c1cccc(F)c1)c1ccc(Nc2ncnc3cc(Br)sc23)cc1Cl [GSK306886]
## Output 13

* * *

System: RIPK1
assay_context: concentration: 1 μM, replicates: in singlicate; n = 1
measured_metric: %Inh (%)
Give bare numbers, in %.

Lab note: each compound below needs its %Inh filled in.
1. CN1c2ccc(-c3ccc(C(=O)NCCO)cc3)cc2-c2[nH]ncc2S1(=O)=O
2. CS(=O)(=O)CCNCc1nc(-c2ccc3ncnc(Nc4ccc(OCc5cccc(F)c5)c(Cl)c4)c3c2)cs1.Cl

## Output
1: 1; 2: 2

Lab note: each compound below needs its %Inh filled in.
1. Nc1n[nH]c2nnc(-c3ccccc3)cc12
2. O=c1cc(N2CCOCC2)nc2n(Cc3cccc(Cl)c3)ccn12
3. Cn1ccc2ncnc(Oc3ccc(NC(=O)Nc4cccnc4)c(Cl)c3)c21
4. COc1ccc(-c2oc3ncnc(N)c3c2-c2ccc(OC)cc2)cc1
5. CCn1c(-c2ccncc2)nc2cnccc21
6. Fc1ccc(Nc2nccc(-c3c(-c4ccc(Cl)cc4)nn4ncccc34)n2)cc1F
7. O=C(NCCCN1CCCC1=O)c1cnc(NCc2cc(Cl)ccc2Cl)nc1NC1CCNCC1

## Output
[0, 0, 0, 2, 0, 0, 0]

Lab note: each compound below needs its %Inh filled in.
1. CSc1nn2c(=O)cc(N3CCOCC3)nc2n1Cc1cccc(Cl)c1Cl
2. FC(F)(F)c1cc(Nc2nccc(-c3c(-c4ccc(Cl)cc4)nn4ncccc34)n2)ccc1Cl
3. FC(F)(F)c1ccc(-c2nn3ncccc3c2-c2ccnc(Nc3cccc(C(F)(F)F)c3)n2)cc1
4. CSc1ccc(NC2=C(c3ccccc3Cl)C(=O)NC2=O)cc1

## Output
0
0
0
0
